These measurements were taken from ChEMBL document CHEMBL1201862.

// reported GI50 per item
- System: SNB-78
- Assay Summary: NCI tumour cell line growth inhibition, 48 h
Calls of active or inactive are those of the source. Rule as the data show it: active = GI50 up to about 1.1 µM and inactive = higher.

Compound | GI50
Cc1cccc(C)c1NC(=O)C(=O)C1C(=O)N(c2ccccc2)N=C1N (stereo unspecified) | > 100 µM (inactive)
COc1ccc(CCC2NCCc3cc(OC)c(OC)cc32)cc1 (stereo unspecified) | 79.8 µM (inactive)
CC[P+](C)(C)c1ccccc1 | 58.1 µM (inactive)
COc1ccc(NC(=O)C(=O)NO)c(OC)c1 | 19.8 µM (inactive)
COc1ccc2nc3cccc(C(=O)NCCN(C)C)c3nc2c1 | 2.88 µM (inactive)
COc1cc([C@@H]2c3cc4c(cc3[C@@H](NCc3ccccc3)C3COC(=O)[C@@H]32)OCO4)cc(OC)c1O (stereo partly specified) | 34.9 µM (inactive)
